Origin of measurements: PubChem BioAssay (EPA / NIEHS)

# Target or test system: Hypoxia-inducible factor 1-alpha (Homo sapiens) (UniProt Q16665)
# Sequence (Q16665 whole entry, looked up): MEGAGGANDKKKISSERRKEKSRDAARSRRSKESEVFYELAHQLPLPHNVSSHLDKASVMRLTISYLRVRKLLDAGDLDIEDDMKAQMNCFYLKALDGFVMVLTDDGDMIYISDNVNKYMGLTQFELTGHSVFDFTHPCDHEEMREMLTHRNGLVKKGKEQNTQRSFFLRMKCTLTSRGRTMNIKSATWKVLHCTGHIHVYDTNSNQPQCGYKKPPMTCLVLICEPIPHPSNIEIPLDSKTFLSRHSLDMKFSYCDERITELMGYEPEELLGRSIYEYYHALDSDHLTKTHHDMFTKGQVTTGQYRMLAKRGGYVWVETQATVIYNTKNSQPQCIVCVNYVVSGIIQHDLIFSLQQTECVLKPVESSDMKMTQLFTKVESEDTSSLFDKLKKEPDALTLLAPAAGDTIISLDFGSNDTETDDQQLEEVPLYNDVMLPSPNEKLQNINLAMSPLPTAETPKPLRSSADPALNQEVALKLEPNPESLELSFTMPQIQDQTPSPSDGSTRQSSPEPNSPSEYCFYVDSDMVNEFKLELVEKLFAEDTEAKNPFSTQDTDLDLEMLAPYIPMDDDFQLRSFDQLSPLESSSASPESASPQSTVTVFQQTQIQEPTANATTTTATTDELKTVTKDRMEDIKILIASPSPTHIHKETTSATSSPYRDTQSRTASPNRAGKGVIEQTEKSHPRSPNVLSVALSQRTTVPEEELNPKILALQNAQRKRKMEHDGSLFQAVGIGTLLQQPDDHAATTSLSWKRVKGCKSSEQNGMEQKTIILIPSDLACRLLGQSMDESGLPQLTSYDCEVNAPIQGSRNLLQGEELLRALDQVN
# Protocol text: ATG_HIF1a_CIS: Attagene CIS-FACTORIAL HepG2 Assay for human Hypoxia Inducible Factor 1 (HIF1A) (AID 2282951)
# Assay context: HepG2 Attagene cis-factorial HIF1a reporter transcription; actives raise or lower the signal
Calls of active or inactive are those of the source. Rule for the calls: active = hit-call score of the fitted dose curve at least 0.9, where 1 is the maximum; inactive = score below 0.9.
# output must be one of Y (active), N (inactive)

Qu. Short answer needed: outcome of this test for `CC=CC(=O)O` ?
Ans. Y

====

# Read-out: Macrophage colony-stimulating factor (MCSF), CSF1 (gene 1435)
# Protocol text: BSK_CASM3C_MCSF: BioMAP Diversity Plus: CASM3C Assay for Macrophage colony-stimulating factor (MCSF) Biomarker Activity (AID 2283044);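 note: M-CSF protein amount quantified by ELISA after 24 h exposure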
# Assay context: primary human coronary artery smooth muscle cells; actives raise or lower the signal
Calls of active or inactive are those of the source. How the source made its calls: active means hit-call score of the fitted dose curve at least 0.9, where 1 is the maximum; inactive means score below 0.9.
Choose the fitting class; nothing outside YES for active, NO for inactive is accepted.

{"columns": ["Molecule", "Discrete label"],
 "data": [
  ["CC(C)C1OCCN1CCOC(=O)NCCCCCCNC(=O)OCCN1CCOC1C(C)C (stereo not drawn)", "NO"],
  ["Sc1nc2ccccc2s1", "NO"],
  ["CCCCCCCCCC/C=C/C1CC(=O)OC1=O (stereo not drawn)", "NO"]
]}

Qu. Recorded test outcome, item `CCC[Si](OC(C)=O)(OC(C)=O)OC(C)=O`
Ans. NO

Qu. Test call for this molecule, please: CCCCC(CC)COC(=O)C=Cc1ccc(OC)cc1 (stereo not drawn)
Ans. NO

Qu. Hey, what did the test say about `CN(C)Cc1cc(C(C)(C)C)c(O)c(C(C)(C)C)c1` ?
Ans. NO

Qu. Which result was noted for this molecule in the test: `Oc1cccc2ccccc12`
Ans. NO

Qu. Call for entry CC(C)CC(=O)CC(C)CC(C)C (stereo not drawn) :
Ans. YES
